Test system: Escherichia coli MB 5157
Test: Agar diffusion assay for antibacterial activity (MIC)
Type: cell-based
Details: MB5157, E. coli, strain MB 5157, trypticase soy agar, 10⁵ cfu, 35°C, 20 hours, read-out: Minimum inhibitory conc.
readout-name: MIC (µg/mL)
Give bare numbers, in µg/mL.

Recorded MIC, per entry:
CN(C)c1ccc(-c2[nH]c(=O)c(C(=O)O)cc2-c2ccc(F)cc2)cc1
8
C[N+](C)([O-])c1ccc(-c2[nH]c(=O)c(C(=O)O)cc2-c2ccc(O)cc2)cc1
8

Give me MIC for each of these molecules, listed below.
1. CN(C)c1ccc(-c2c(-c3ccc(F)cc3)cc(C(=O)O)c(=O)n2C)cc1
2. O=C(O)c1cc(-c2ccc(F)cc2)c(-c2ccc(N3CCOCC3)cc2)[nH]c1=O
3. CSc1ccc(-c2[nH]c(=O)c(C(=O)O)cc2-c2ccc(F)cc2)cc1
4. CN(C)c1ccc(-c2[nH]c(=O)c(C(=O)O)cc2-c2ccc(O)cc2)cc1

[4, 8, 16, 0.25]
